# Tested on: SN12C renal
# methodNotes: NCI-60 one-dose screen, 48 h
# setupConditions: 10 µM unless noted
About 83,000 compounds went through this panel and 20% of them were active in at least one assay; those are over-represented in the sample as a whole. Calls of active or inactive are those of the source. Rule for the calls: active = growth percent below 10; inactive = the rest.
Log the outcome using a class from active, inactive

Q: Hey, what did the test say about `O=[N+]([O-])c1cc2c(ccc3occc32)o1` ?
Result: inactive

Q: Dear colleague, could you share the recorded outcome for `O=c1oc2ccc(I)cc2c(=O)n1-c1ccc(Br)cc1F` when you have a moment?
Result: active

Q: Please state the recorded outcome for this compound: `O=C(/C=C/c1cccc(Cl)c1)OCc1ccc2cc1OCC#C/C=C\C#CCO2`
Result: inactive

Q: Dear colleague, could you share the recorded outcome for `CCCN1CCN(c2ccc3nc(-c4ccc5nc(-c6cc(OC)ccc6OC)[nH]c5c4)[nH]c3c2)CC1` when you have a moment?
Result: inactive

Q: Please state the recorded outcome for this compound: `COc1cc([C@@H]2NC(=O)NC(C)=C2C(=O)Nc2nc(-c3ccc(Cl)cc3)cs2)ccc1O`
Result: inactive

Q: What did the test return for `O=NN(Cc1cccnc1)C(=O)NC1CCCCC1` ?
Result: inactive

###

# System: SF-295 CNS
# methodNotes: NCI-60 one-dose screen, 48 h
# setupConditions: 10 µM unless noted
This is part of a sample that, as a whole, favours compounds with a hit. Of some 83,000 tested, about 20% had one in any assay. Activity calls are given as the source filed them. Rule for the calls: active = growth percent below 10; inactive = the rest.
Select the correct class. Options are TRUE = active, FALSE = inactive and nothing else.

Q: Write down the call the test reported for this compound. Item: `CC[C@]1(O)C[C@@H]2CN(CCc3c([nH]c4ccccc34)[C@@](C(=O)OC)(c3cc4c(cc3OC)N(C)[C@H]3[C@@](O)(C(=O)OC)[C@H](OC(C)=O)[C@]5(CC)C=CCN6CC[C@]43[C@@H]65)C2)C1`
Result: TRUE

Q: For `CC[C@H](C)[C@@H](C(=O)OC)n1cc(CNC(=O)[C@@H](Cc2ccccc2)NC(=O)OCc2ccccc2)nn1` , which call appears in the assay record?
Result: FALSE

Q: Each compound tested received a call. Report the one for `O=C(NC1CCN(Cc2ccccc2)CC1)c1cc2nc(-c3ccc(Cl)s3)cc(C(F)(F)F)n2n1` .
Result: TRUE

Q: What outcome does the record of this test show for `O=C(O)CCC(=O)c1ccc(C2CCCCCC2)cc1` ?
Result: FALSE

Q: Give the logged outcome of this assay for the following compound: `O=c1oc2ccc(Cl)cc2c(=O)n1-c1ccc(Cl)cc1F`
Result: TRUE

Q: Please share the test call associated with `Clc1ccc(COc2ccc(Nc3ncnc4onc(-c5ccccc5)c34)cc2)cc1` .
Result: FALSE

Q: # lookup: test call for `COc1ccc(-c2cc(=O)c3c(OC)c4ccoc4c(/C=C/C=O)c3o2)cc1`
Result: FALSE

Q: Answer briefly: the call reported for `CC1=C(CC(=O)c2cccc([N+](=O)[O-])c2)C(=O)c2ccccc2C1=O` in this assay.
Result: TRUE

Q: I'd appreciate the recorded outcome for `O=[N+]([O-])c1cc2c(ccc3occc32)o1` from this test.
Result: TRUE

Q: What was the test verdict on `Cc1c(-c2noc(-c3ccc([N+](=O)[O-])cc3)n2)no[n+]1[O-]` ?
Result: FALSE

Q: Entry `COc1cc(/C=C/C(=O)c2ccc(Nc3nc(NCCO)nc(N4CCOCC4)n3)cc2)cc(OC)c1OC` : call = ?
Result: FALSE

Q: Which outcome did this test record for the compound `FC(F)(F)c1cccc(CNC2CCN(CCc3ccccc3)CC2)c1` ?
Result: FALSE

Q: Please state the recorded outcome for this compound: `O=c1nc2sc3nc4ccccc4cc3cc-2s1`
Result: FALSE

Q: For `CCCCCCc1cc2cc(-c3csc(/C=C/c4ccccc4)n3)c(=O)oc2cc1O` , what call appears in the results of this test?
Result: TRUE

Q: What did this assay record as the result for `O=C1Nc2ccccc2/C1=C/c1cccs1` ?
Result: FALSE

Q: Write down the call the test reported for this compound. Item: `O=C(Nc1ccc(N2CCNCC2)cc1)c1[nH]ncc1Nc1ncnc2sc3c(c12)CCC3`
Result: TRUE

Q: GET /call?item= `CCOC(=O)C1=CN(C)C=C(C(=O)OCC)C1c1cc(Br)c(OCC)c(OC)c1` returns the recorded outcome of this test.
Result: TRUE

Q: Assay result, entry `O=S1(=O)CCN(Cc2ccccc2)CC1` — outcome?
Result: FALSE

Q: Outcome logged for `COc1cc(/C=C2\CN(C)C/C(=C\c3cc(CN4CCOCC4)c(O)c(OC)c3)C2=O)cc(CN2CCOCC2)c1O` in this assay:
Result: FALSE

Q: What outcome does the record of this test show for `CCn1c(SCC(=O)Nc2cc(C(F)(F)F)ccc2Cl)nc2ccccc2c1=O` ?
Result: FALSE

###

# System: OVCAR-3 ovarian
# methodNotes: NCI-60 one-dose screen, 48 h
# setupConditions: 10 µM unless noted
Compounds without any hit were thinned out: in the full panel of roughly 83,000, 20% have a hit. Active and inactive are the calls of the source. The calls were made as follows: active = growth percent below 10; inactive = the rest.
Return exactly one item of t (active), f (inactive)

Q: Dear all, I need the recorded test outcome for COc1ccc(-c2nsc3c2NC(=O)CC3c2ccc3c(c2)OCCO3)cc1 (stereo unspecified) , thank you.
Result: t

Q: What did this assay record as the result for `CC(=O)n1cc(-c2c[nH]c3ccccc23)c(-c2ccc(Cl)cc2)n1` ?
Result: f

Q: # outcome recorded in this test, key = `COc1ccc(Br)c(/C=C2\SC(=Nc3ccc(O)cc3)NC2=O)c1`
Result: f

Q: State the result this test recorded for `COc1cc(/C=C/C(=O)c2c(C)nc3ccccc3c2/C=C/c2ccccc2)cc(OC)c1OC` .
Result: t

Q: Check the results log: what was the call for `COc1cc(/C=C2\CN(C)C/C(=C\c3cc(CN4CCCCC4)c(O)c(OC)c3)C2=O)cc(CN2CCCCC2)c1O` ?
Result: t

Q: # lookup: test call for CCCCC1COc2cccc3c2N1C=C/C3=C\C(=O)N(C)c1ccccc1 (stereo unspecified)
Result: f

Q: Please share the test call associated with `Cn1c(/C=C(\C#N)c2ccccc2)nc2c(N3CCOCC3)nc(Cl)nc21` .
Result: t

Q: Kindly provide the recorded test outcome for the following molecule: `COc1ccc(C)c2sc(N(Cc3cccnc3)C(=O)c3ccc(C#N)cc3)nc12`
Result: f

Q: Recorded test call requested for `CCC(C)(C)C(=O)O[C@H]1C[C@@H](C)C=C2C=C[C@H](C)[C@H](CC[C@@H]3CC=CC(=O)O3)[C@H]21`
Result: f

Q: So what was the verdict on `CCOC(=O)c1c(Cl)c2c(n1Cc1ccccc1)-c1oncc1CCC2` in this test?
Result: f

Q: Recorded test outcome, item `COc1cccc(/C(C#N)=C/c2nc3c(N4CCOCC4)nc(Cl)nc3n2C)c1`
Result: t

Q: In this assay, the call recorded for `O=C(Nc1ccc(Cl)cc1)c1cc2ccccc2cc1OP(=O)(O)O` was what?
Result: f

Q: Outcome? CCOC(=O)C1=C(C)N=c2s/c(=C\c3ccccc3O)c(=O)n2C1c1ccc(OC)c2ccccc12 (stereo unspecified)
Result: f

Q: What was the test verdict on `COc1ccc(Nc2nc(N/N=C/c3ccc(O)cc3)nc(Nc3ccc([N+](=O)[O-])cc3)n2)cc1` ?
Result: f

Q: For `O=C(COc1cc(O)c2c(=O)cc(-c3ccccc3)oc2c1)Nc1ccccc1` , which call appears in the assay record?
Result: f

Q: Hello, I am checking results. What call was entered for `O=c1oc2ccc(Cl)cc2c(=O)n1-c1cc(C(F)(F)F)cc(C(F)(F)F)c1` ?
Result: t

Q: Given `O=C(CSc1nc2ccccc2c(=O)n1-c1ccccc1)Nc1ccc(C(=O)/C=C/c2ccc(Cl)cc2)cc1` , state the outcome it received in this test.
Result: f

Q: Test call for this molecule, please: `CCOc1c(Br)cc(C2C(C(=O)OC)=CN(C)C=C2C(=O)OC)cc1OC`
Result: f

Q: How was `S=C1CCCC(=S)N1` classified in this test?
Result: f

Q: How did this test come out for `COc1cc(-c2c3c(c(Br)n2Cc2ccccc2)-c2nc(N)sc2CC3)cc(OC)c1OC` ?
Result: f

Q: Assay result, entry `COc1ccc(Nc2cc(C)nc(NCc3ccccc3)n2)cc1` — outcome?
Result: t

Q: Hello, I am checking results. What call was entered for `COc1cc2cc3c(=O)n4c(cc5cc(OC)ncc54)c(=O)n3c2cn1` ?
Result: f

Q: Just curious, what result did `O=C(/C=C/c1ccccc1)c1ccc(Nc2nc(NCCO)nc(Nc3ccc(Cl)cc3)n2)cc1` get here?
Result: f

Q: Which outcome did this test record for the molecule COc1ccc(C2C3=C(COC3=O)N(CCO)c3cc4c(cc32)CCC4)cc1 (stereo unspecified) ?
Result: t

Q: Hey, what did the test say about `FC(F)(F)c1cccc(CNC2CCN(CCc3ccccc3)CC2)c1` ?
Result: f

Q: In this assay, the call recorded for COc1ccc(C2C3=C(COC3=O)N(CCO)c3cc4c(cc32)OCCO4)cc1 (stereo unspecified) was what?
Result: f

Q: Could you check what this test reported for `O=C(CN1C(=O)/C(=C\c2ccc(Cl)cc2)SC1=S)Nc1ncc(Cc2ccc(Cl)cc2)s1` ?
Result: f

Q: For `CC(C)[C@H](NC(=O)Cn1cc(C(=O)O)nn1)C(=O)O` , what call appears in the results of this test?
Result: f

Q: Please share the test call associated with `COc1ccc(/C=C/C(=O)c2ccc3cc(OC)c(OC)cc3c2)cc1OC` .
Result: f

Q: // return assay outcome for `Clc1ccc(COc2ccc(Nc3ncnc4onc(-c5ccccc5)c34)cc2)cc1`
Result: f

Q: // outcome(item) with item = `Oc1c(CN2CCN(c3ccccc3F)CC2)cc(Br)c2cccnc12`
Result: t

Q: Recorded call for `COc1ccccc1C1=C(Br)C(=O)c2nc(C)ccc2C1=O` ?
Result: f

Q: Could you check what this test reported for `O=C(N=Nc1c(O)[nH]c2ccccc12)c1oc2ccccc2c1CN1CCN(c2ccccc2)CC1` ?
Result: t

Q: For `CCOC(=O)C1(Cc2ccccc2)CCN(Cc2cccc(OC)c2O)CC1` , what call appears in the results of this test?
Result: f

Q: What is the recorded call for this molecule in the test? `O=Cc1cc2ccccc2nc1Nc1nccs1`
Result: f

Q: // param item: `CCOC(=O)c1c2c(c(C)n1Cc1ccc(OC)cc1)-c1oncc1CC2` ; yields the recorded call
Result: f

Q: Hey, what did the test say about `CCOC(=O)CSc1c(-c2ccccc2)c2cc(Cl)ccc2[nH]c1=O` ?
Result: f

Q: Assay outcome for `O=c1oc2ccc(F)cc2c(=O)n1-c1ccc(Br)cc1F` : what was it?
Result: t

Q: Please let me know the test result on file for `O=S(=O)(c1ccccc1)n1cc2c(c1-c1ccccc1)CCc1sc(Nc3ccccc3)nc1-2` .
Result: f

Q: Per the records of this test, what outcome belongs to `CCOc1cccc(/C=N\Nc2nc(=O)cc(C(=O)OC)s2)c1O` ?
Result: f

Q: Query: recorded result category for `Cc1ccc(S(=O)(=O)c2c(COC(=O)c3cccc(C)c3)c(-c3ccccc3)nn2C)cc1` in this test
Result: t
